Molecular target: Sigma non-opioid intracellular receptor 1 (Cavia porcellus, UniProt Q60492)
Sequence (Q60492 whole entry): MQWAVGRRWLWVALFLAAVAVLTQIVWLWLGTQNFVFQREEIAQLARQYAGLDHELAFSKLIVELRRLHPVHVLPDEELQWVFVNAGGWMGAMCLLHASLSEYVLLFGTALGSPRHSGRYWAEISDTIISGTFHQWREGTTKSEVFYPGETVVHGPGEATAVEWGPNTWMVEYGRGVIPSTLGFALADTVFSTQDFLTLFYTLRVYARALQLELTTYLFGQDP
Test: Displacement of [3H]-(+)-pentazocine from Sigma1 receptor in guinea pig cortex membranes incubated for 120 mins by microbeta scintillation counting method
attributeMeasured: pKi
Please keep in mind that pKi is minus log10 of the molar concentration; only the number is needed.

Example cases with answers are listed next.
compound	assayedSystem	pKi
CC(O)CN1[C@H](C)CN(CCSC(c2ccc(F)cc2)c2ccc(F)cc2)C[C@@H]1C (mixture of isomers)	Sigma non-opioid intracellular receptor 1 (Cavia porcellus, UniProt Q60492)	8.25
C[C@@H]1CN(CCSC(c2ccc(F)cc2)c2ccc(F)cc2)C[C@H](C)N1C[C@@H](C)O	Sigma non-opioid intracellular receptor 1 (Cavia porcellus, UniProt Q60492)	8.66

# pKi of CC(=O)CN1CCN(CCSC(c2ccc(F)cc2)c2ccc(F)cc2)CC1 = 8.97

For [O-][S+](CCN1CCN(CC(O)Cc2ccc(F)cc2)CC1)C(c1ccc(F)cc1)c1ccc(F)cc1 (centres undefined) the compound record lists pKi as 7.13

Data point: C[C@H](O)CN1CCN(CC[S+]([O-])C(c2ccc(F)cc2)c2ccc(F)cc2)CC1 (some centres undefined) ; pKi = 6.55

Data point: [O-][S+](CCN1CCN(C[C@H](O)Cc2ccccc2)CC1)C(c1ccc(F)cc1)c1ccc(F)cc1 (some centres undefined) ; pKi = 6.48

Noted for COc1ccc(CC(O)CN2CCN(CC[S+]([O-])C(c3ccc(F)cc3)c3ccc(F)cc3)CC2)cc1 (centres undefined) : its pKi reads 7.50

Note to self: pKi recorded for C[C@@H]1CN(CCSC(c2ccc(F)cc2)c2ccc(F)cc2)C[C@H](C)N1CC(O)Cc1ccccc1 (some centres undefined) was 7.82

Just so you know, measured pKi for CCC(=O)N1CCN(CCSC(c2ccc(F)cc2)c2ccc(F)cc2)CC1 came out at 7.48

Please fill in: pKi reported for C[C@@H](O)CN1CCN(CCSC(c2ccc(F)cc2)c2ccc(F)cc2)CC1 = 8.52

Sample O[C@H](Cc1ccccc1)CN1CCN(CCSC(c2ccc(F)cc2)c2ccc(F)cc2)CC1 ; pKi observed: 7.63

O=C(CCc1ccccc1)N1CCN(CCSC(c2ccc(F)cc2)c2ccc(F)cc2)CC1 has a reported pKi of 6.53
